These entries and their values trace back to BigSolDB 2.1.

conditions: in cyclohexanone, 308.13 K
MEASURED METRIC: solubility (mole fraction)
Give bare numbers.

Enquiry: Entry `CC(C)(Oc1ccc(CCNC(=O)c2ccc(Cl)cc2)cc1)C(=O)O` has what solubility (mole fraction)?
Return: 0.0128

====

details: in n-propyl acetate, 318.16 K
MEASURED METRIC: solubility (mole fraction)
One number for each entry.

Enquiry: Entry `CC(C)(Oc1ccc(CCNC(=O)c2ccc(Cl)cc2)cc1)C(=O)O` has what solubility (mole fraction)?
Return: 0.00177

====

conditions: in isopropanol, 298.24 K
MEASURED METRIC: solubility (mole fraction)
One number for each entry.

Enquiry: Entry `CC(C)(Oc1ccc(CCNC(=O)c2ccc(Cl)cc2)cc1)C(=O)O` has what solubility (mole fraction)?
Return: 0.00302
